Known Kd of a selection of binders
Target: T1, CD47 receptor (UniProt Q08722 19-323, limits assumed)
T1 construct: whole, on cells; The assays used a whole MEC-1 cell membrane preparation, not purified CD47; also called membrane preparation from MEC-1 cells
T1 sequence (Q08722 19-323 limits assumed): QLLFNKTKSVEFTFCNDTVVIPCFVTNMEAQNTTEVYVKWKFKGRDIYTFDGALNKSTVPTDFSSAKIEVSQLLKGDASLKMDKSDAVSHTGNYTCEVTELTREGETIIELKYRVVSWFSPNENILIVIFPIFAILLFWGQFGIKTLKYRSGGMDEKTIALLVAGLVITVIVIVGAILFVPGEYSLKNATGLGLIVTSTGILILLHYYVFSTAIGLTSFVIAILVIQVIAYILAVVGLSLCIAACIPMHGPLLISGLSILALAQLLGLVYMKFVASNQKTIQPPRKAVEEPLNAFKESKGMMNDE
Test: microscale thermophoresis (MST), labeled MEC-1 membrane preparation
Note: unit nM is implicit; provide only the numeric part.

Quick one: Kd of KRFYVVMWKK ((D)-Lys at position 1 and (D)-Lys at position 10, also called 4(PKHB1)) [PKHB1, H-(D)K R F Y V V M W K (D)K-OH] ? 3040

Consider next the binder Ac-KRFYVVMWKK-NH2 [peptide 2, Ac-KRFYVVMWKK-NH2] in the same way. 1200

For KRFYVVMWKK (Decapeptide that mimics the C-terminal domain of TSP-1) [4N1K] then? 2280
